biological target: E-selectin (Homo sapiens, UniProt P16581); assay: Inhibition of human recombinant E-Selectin assessed as inhibition of binding of HL-60 cells expressing tetrasaccharide sialyl Lewis x to selectin coated wells; type: cell-based
Assay Metric: IC50 (mM)
One number for each entry, in mM.

- Smiles Str: "O=C(O)c1cccc(NC(=O)C(F)(F)[C@]2(O)O[C@H](CO)[C@@H](O)[C@H](O)[C@@H]2O)c1"
  IC50, mM: 5

// for each compound below, give its IC50
1. O=C(O)c1cccc(NC(=O)C(F)(F)[C@@H]2O[C@H](CO)[C@@H](O)[C@H](O)[C@@H]2O)c1
2. O=C(O)CC[C@H](NC(=O)C(F)(F)[C@H]1O[C@H](CO)[C@@H](O)[C@H](O)[C@@H]1O)C(=O)O
3. O=C(O)c1cccc(NC(=O)C(F)(F)[C@H]2O[C@H](CO)[C@@H](O)[C@H](O)[C@@H]2O)c1
4. O=C(O)CC[C@H](NC(=O)C(F)(F)[C@@H]1O[C@H](CO)[C@@H](O)[C@H](O)[C@@H]1O)C(=O)O

-- reply
[2.5, 3, 5, 15]

###

Provide the reported inhibition of each item.
Target: P-selectin (Homo sapiens) (UniProt P16109)
Sequence (whole entry): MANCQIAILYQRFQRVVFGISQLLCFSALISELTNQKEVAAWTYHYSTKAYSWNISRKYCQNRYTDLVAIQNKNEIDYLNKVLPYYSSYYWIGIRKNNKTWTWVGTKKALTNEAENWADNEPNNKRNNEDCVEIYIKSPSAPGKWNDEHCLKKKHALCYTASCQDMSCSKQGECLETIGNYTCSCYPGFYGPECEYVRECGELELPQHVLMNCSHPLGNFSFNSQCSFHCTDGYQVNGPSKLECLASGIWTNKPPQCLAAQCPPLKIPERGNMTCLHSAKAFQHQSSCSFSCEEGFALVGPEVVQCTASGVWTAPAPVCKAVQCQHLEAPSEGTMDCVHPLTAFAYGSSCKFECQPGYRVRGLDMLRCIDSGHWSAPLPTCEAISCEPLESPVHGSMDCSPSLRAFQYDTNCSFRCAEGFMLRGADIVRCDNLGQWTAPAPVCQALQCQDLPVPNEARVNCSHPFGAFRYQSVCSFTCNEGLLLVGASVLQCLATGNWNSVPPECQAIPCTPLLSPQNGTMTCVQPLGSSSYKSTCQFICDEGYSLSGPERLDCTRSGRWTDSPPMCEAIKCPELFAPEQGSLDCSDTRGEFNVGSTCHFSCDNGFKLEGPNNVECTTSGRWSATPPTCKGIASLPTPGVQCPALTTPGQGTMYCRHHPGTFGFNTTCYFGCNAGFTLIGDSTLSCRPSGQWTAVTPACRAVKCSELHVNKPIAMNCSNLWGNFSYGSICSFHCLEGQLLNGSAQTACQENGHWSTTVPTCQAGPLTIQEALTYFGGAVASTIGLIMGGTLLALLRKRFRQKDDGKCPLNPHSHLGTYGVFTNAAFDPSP
Experiment: Inhibition of human recombinant P-Selectin assessed as inhibition of binding of HL-60 cells expressing tetrasaccharide sialyl Lewis x at 5 mM
Assay type: cell-based
One number for each entry, in %.

Please review the following examples before continuing.
- Smiles Str: "O=C(O)c1cccc(NC(=O)C(F)(F)[C@@H]2O[C@H](CO)[C@@H](O)[C@H](O)[C@@H]2O)c1"
  Value Units: "%"
  inhibition: 67
- Smiles Str: "O=C(O)c1cccc(NC(=O)C(F)(F)[C@]2(O)O[C@H](CO)[C@@H](O)[C@H](O)[C@@H]2O)c1"
  Value Units: "%"
  inhibition: 43
- Smiles Str: "CC(=O)N[C@H]1[C@H]([C@H](O)[C@H](O)CO)O[C@@](O[C@H]2[C@@H](O)[C@@H](CO)O[C@@H](O[C@H]([C@H](O[C@H]3O[C@@H](C)[C@@H](O)[C@@H](O)[C@@H]3O)[C@H](C=O)NC(C)=O)[C@H](O)CO)[C@@H]2O)(C(=O)O)C[C@@H]1O"
  Value Units: "%"
  inhibition: 45
- Smiles Str: "O=C(O)CC[C@H](NC(=O)C(F)(F)[C@H]1O[C@H](CO)[C@@H](O)[C@H](O)[C@@H]1O)C(=O)O"
  Value Units: "%"
  inhibition: 59
- Smiles Str: "O=C(O)CC[C@H](NC(=O)C(F)(F)[C@]1(O)O[C@H](CO)[C@@H](O)[C@H](O)[C@@H]1O)C(=O)O"
  Value Units: "%"
  inhibition: 19
- Smiles Str: "O=C(O)c1cccc(NC(=O)C(F)(F)[C@H]2O[C@H](CO)[C@@H](O)[C@H](O)[C@@H]2O)c1"
  Value Units: "%"
  inhibition: 50

-- ask Quick one: inhibition for `O=C(O)CC[C@H](NC(=O)C(F)(F)[C@@H]1O[C@H](CO)[C@@H](O)[C@H](O)[C@@H]1O)C(=O)O` ?
-- reply 42

###

biological target: P-selectin (Homo sapiens) (UniProt P16109); experiment: Inhibition of human recombinant P-Selectin assessed as immobilized HL-60 cells expressing tetrasaccharide sialyl Lewis x at 0.5 mM; type: cell-based; design: scale not given: the % may be the effect or the level left
Please provide measured Activity for the entries that follow.
Give bare numbers, in %.

Some compounds with known Activity results, for comparison:
- Smiles Str: "O=C(O)c1cccc(NC(=O)C(F)(F)[C@H]2O[C@H](CO)[C@@H](O)[C@H](O)[C@@H]2O)c1"
  Value Units: "%"
  Assay Value: 83
- Smiles Str: "O=C(O)c1cccc(NC(=O)C(F)(F)[C@@H]2O[C@H](CO)[C@@H](O)[C@H](O)[C@@H]2O)c1"
  Value Units: "%"
  Assay Value: 92
- Smiles Str: "O=C(O)CC[C@H](NC(=O)C(F)(F)[C@H]1O[C@H](CO)[C@@H](O)[C@H](O)[C@@H]1O)C(=O)O"
  Value Units: "%"
  Assay Value: 101
- Smiles Str: "O=C(O)CC[C@H](NC(=O)C(F)(F)[C@@H]1O[C@H](CO)[C@@H](O)[C@H](O)[C@@H]1O)C(=O)O"
  Value Units: "%"
  Assay Value: 80
- Smiles Str: "O=C(O)CC[C@H](NC(=O)C(F)(F)[C@]1(O)O[C@H](CO)[C@@H](O)[C@H](O)[C@@H]1O)C(=O)O"
  Value Units: "%"
  Assay Value: 74

-- ask What value of Activity has been reported for the following compound? `CC(=O)N[C@H]1[C@H]([C@H](O)[C@H](O)CO)O[C@@](O[C@H]2[C@@H](O)[C@@H](CO)O[C@@H](O[C@H]([C@H](O[C@H]3O[C@@H](C)[C@@H](O)[C@@H](O)[C@@H]3O)[C@H](C=O)NC(C)=O)[C@H](O)CO)[C@@H]2O)(C(=O)O)C[C@@H]1O`
-- reply 101

###

Exercise: state measured IC50 for each of the compounds provided.
biological target: P-selectin (Homo sapiens, UniProt P16109); test: Inhibition of human recombinant P-Selectin assessed as inhibition of binding of HL-60 cells expressing tetrasaccharide sialyl Lewis x to selectin coated wells
Answers are plain numbers, in mM.

- Smiles Str: "O=C(O)CC[C@H](NC(=O)C(F)(F)[C@]1(O)O[C@H](CO)[C@@H](O)[C@H](O)[C@@H]1O)C(=O)O"
  IC50, mM: 11
- Smiles Str: "O=C(O)CC[C@H](NC(=O)C(F)(F)[C@H]1O[C@H](CO)[C@@H](O)[C@H](O)[C@@H]1O)C(=O)O"
  IC50, mM: 3

-- ask // query IC50 value for entry `O=C(O)c1cccc(NC(=O)C(F)(F)[C@H]2O[C@H](CO)[C@@H](O)[C@H](O)[C@@H]2O)c1`
-- reply 5

###

Target: UniProt:P16581
Sequence (P16581 whole entry): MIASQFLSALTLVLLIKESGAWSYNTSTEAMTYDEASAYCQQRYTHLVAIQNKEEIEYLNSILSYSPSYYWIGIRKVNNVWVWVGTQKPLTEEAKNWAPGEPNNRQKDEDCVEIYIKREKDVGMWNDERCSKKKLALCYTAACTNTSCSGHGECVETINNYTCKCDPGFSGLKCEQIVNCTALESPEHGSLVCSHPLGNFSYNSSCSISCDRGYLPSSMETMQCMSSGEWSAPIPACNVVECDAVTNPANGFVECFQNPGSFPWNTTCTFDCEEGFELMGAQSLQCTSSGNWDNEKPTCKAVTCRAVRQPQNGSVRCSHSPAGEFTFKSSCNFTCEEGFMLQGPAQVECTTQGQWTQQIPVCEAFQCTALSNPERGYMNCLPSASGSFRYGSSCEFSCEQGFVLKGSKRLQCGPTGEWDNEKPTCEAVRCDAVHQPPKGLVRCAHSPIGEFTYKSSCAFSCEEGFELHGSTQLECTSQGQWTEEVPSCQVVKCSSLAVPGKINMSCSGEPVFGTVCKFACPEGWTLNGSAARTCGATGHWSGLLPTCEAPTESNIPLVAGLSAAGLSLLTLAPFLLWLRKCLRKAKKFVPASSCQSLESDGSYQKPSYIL
Experiment: Inhibition of human recombinant E-Selectin assessed as inhibition of binding of HL-60 cells expressing tetrasaccharide sialyl Lewis x to selectin coated wells
Assay Metric: pIC50
Numbers only, as −log10 of the molar value.

Known pIC50 results, listed for orientation:
- Smiles Str: "O=C(O)CC[C@H](NC(=O)C(F)(F)[C@]1(O)O[C@H](CO)[C@@H](O)[C@H](O)[C@@H]1O)C(=O)O"
  Target Of Assay: "UniProt:P16581"
  pIC50: 1.96
- Smiles Str: "O=C(O)CC[C@H](N[C@H]1O[C@H](CO)[C@@H](O)[C@H](O)[C@@H]1O)C(=O)O"
  Target Of Assay: "UniProt:P16581"
  pIC50: 2.22

-- ask Data request, read-out pIC50, for `CC(=O)N[C@H]1[C@H]([C@H](O)[C@H](O)CO)O[C@@](O[C@H]2[C@@H](O)[C@@H](CO)O[C@@H](O[C@H]([C@H](O[C@H]3O[C@@H](C)[C@@H](O)[C@@H](O)[C@@H]3O)[C@H](C=O)NC(C)=O)[C@H](O)CO)[C@@H]2O)(C(=O)O)C[C@@H]1O`
-- reply 3.52
